- Test Name: UV absorption properties (λmax, molar extinction coefficient ε, efficiency E 1%, 1 cm)
- Type: physicochemical
- Condition Summary: Table 6B
Field: E (1%, 1 cm). Provide a value for each of the compounds that follow.
Numbers only.

INSERT INTO assay_data (compound, endpoint_value) VALUES
  ('CC1(C)CCN(C(C)(C)C)C=C1C(=O)c1ccc(C(=O)O)cc1 [drawing 98]', 549),
  ('CC1(C)CCN(C(C)(C)C)C=C1C(=O)c1ccc(C(=O)C2=CN(C(C)(C)C)CCC2(C)C)cc1 [drawing 97]', 732),
  ('CC1(C)CCN(C(C)(C)C)C=C1C(=O)/C=C/c1ccccc1 [drawing 93]', 781);

For each of the items listed, what is its E (1%, 1 cm)?
1. C=CC(=O)C1=CN(C(C)(C)C)CCC1(C)C [drawing 92]
2. CN(C)c1ccc(C(=O)C2=CN(C(C)(C)C)CCC2(C)C)cc1 [drawing 95]
3. CC1(C)CCN(C(C)(C)C)C=C1C(=O)c1ccc(Br)cc1 [drawing 94]

### Response
1. 1127
2. 793
3. 785

### Prompt Please report the recorded E (1%, 1 cm) for CC(C)(C)Oc1ccc(C(=O)C2=CN(C(C)(C)C)CCC2(C)C)cc1 [drawing 96] .
### Response 949

---

Field: λmax. Provide a value for each of the molecules that follow.
- Test Name: UV absorption properties (λmax, molar extinction coefficient ε, efficiency E 1%, 1 cm)
- Format: physicochemical
- Condition Summary: Table 13B, miscellaneous compounds
Give bare numbers, in nm.

Examples with their reported λmax follow.
INSERT INTO assay_data (smiles_entry, endpoint_value) VALUES
  ('Cc1ccc(N2C=C(C(=O)N(CCCCN(C(=O)C3=CN(c4ccc(C)cc4)CCC3(C)C)c3ccccc3)c3ccccc3)C(C)(C)CC2)cc1', 325),
  ('CCC(=O)C1=CN(c2ccc(N3C=C(C(=O)CC)C(C)(C)CC3)cc2)CCC1(C)C', 357),
  ('CCC(=O)C1=CN(c2ccc(Oc3ccc(N4C=C(C(=O)CC)C(C)(C)CC4)cc3)cc2)CCC1(C)C', 334),
  ('Cc1ccc(NC(=O)C2=CN(C(C)(C)CC(C)(C)C)CCC2(C)C)cc1NC(=O)C1=CN(C(C)(C)CC(C)(C)C)CCC1(C)C', 311),
  ('CC1(C)CCN(C(C)(C)C)C=C1C(=O)c1ccc(C(F)(F)F)cc1', 315);

For each of the items listed, what is its λmax?
1. CC1(C)CCN(c2ccc(N3C=C(C(=O)CCC(F)(F)F)C(C)(C)CC3)cc2)C=C1C(=O)CCC(F)(F)F
2. CC(C)(C)CC(C)(C)N1C=C(C(=O)/C=C/c2ccc(Br)cc2)C(C)(C)CC1
3. CC1(C)CCN(C(C)(C)C)C=C1C(=O)c1c(F)cccc1F

### Response
1. 358
2. 360
3. 312

---

- Test Name: UV absorption properties (λmax, molar extinction coefficient ε, efficiency E 1%, 1 cm)
- Type: physicochemical
- Condition Summary: Table 4; in M-1 cm-1
Quantity Name: ε
One number for each entry.

Examples with their reported ε follow.
INSERT INTO results (molecule, quantity_name, endpoint_value) VALUES
  ('CC1(C)CCN(c2ccc(C(C)(C)C)cc2)C=C1C(=O)Nc1ccc(NC(=O)C2=CN(c3ccc(C(C)(C)C)cc3)CCC2(C)C)cc1 [drawing 68]', 'ε', 68095),
  ('CC1(C)CCN(c2ccc(C(C)(C)C)cc2)C=C1C(=O)Nc1ccccc1 [drawing 70]', 'ε', 35759),
  ('Cc1ccc(N2C=C(C(=O)Nc3ccc(C)c(NC(=O)C4=CN(C(C)(C)C)CCC4(C)C)c3)C(C)(C)CC2)cc1 [drawing 67]', 'ε', 51743);

### Prompt Please report the recorded ε for Cc1ccc(N2C=C(C(=O)Nc3ccccc3)C(C)(C)CC2)cc1 [drawing 69] .
### Response 33948

---

- Test Name: UV absorption properties (λmax, molar extinction coefficient ε, efficiency E 1%, 1 cm)
- Assay type: physicochemical
- Condition Summary: Table 4, N-aryl enamines with isocyanates
Quantity Name: λmax (nm)
Answers are plain numbers, in nm.

Examples with their reported λmax follow.
INSERT INTO assay_data (molecule, endpoint_value) VALUES
  ('Cc1ccc(N2C=C(C(=O)Nc3ccc(C)c(NC(=O)C4=CN(C(C)(C)C)CCC4(C)C)c3)C(C)(C)CC2)cc1 [drawing 67]', 314),
  ('Cc1ccc(N2C=C(C(=O)Nc3ccccc3)C(C)(C)CC2)cc1 [drawing 69]', 323),
  ('CC1(C)CCN(c2ccc(C(C)(C)C)cc2)C=C1C(=O)Nc1ccc(NC(=O)C2=CN(c3ccc(C(C)(C)C)cc3)CCC2(C)C)cc1 [drawing 68]', 331);

Now turn to the next molecule.
### Prompt Please report the recorded λmax for CC1(C)CCN(c2ccc(C(C)(C)C)cc2)C=C1C(=O)Nc1ccccc1 [drawing 70] .
### Response 324

---

- Test Name: Critical wavelength (λcrit), approximate in-house measurement
- Format: physicochemical
- Condition Summary: Table 10
Quantity Name: λcrit
State the value with its unit after it.

Examples with their reported λcrit follow.
INSERT INTO measurements (molecule, endpoint_value) VALUES
  ('Cc1ccc(N2C=CC(C)(C)CC2)cc1', '321 nm'),
  ('Cc1ccc(N2C=CC(C)(C)C(C(=O)C(F)(F)F)=C2)cc1 [drawing 151]', '393 nm'),
  ('Cc1ccc(N2C=CC(C)(C)C=C2)cc1', '317 nm'),
  ('Cc1cc(N2C=CC(C)(C)C=C2)n(C)n1 [drawing 152]', '350 nm'),
  ('Cc1nn(C)c(N2C=CC(C)(C)C=C2)c1C(=O)C(F)(F)F [drawing 153]', '363 nm');

Now turn to the next molecule.
### Prompt Please report the recorded λcrit for `CC1(C)C=CN(c2ccncc2)C=C1` .
### Response 327 nm

---

- Test Name: UV absorption properties (λmax, molar extinction coefficient ε, efficiency E 1%, 1 cm)
- Type: physicochemical
- Condition Summary: Table 7; values in order of the λmax values
Field: ε. Provide a value for each of the compounds that follow.
One number for each entry, in M⁻¹ cm⁻¹.

INSERT INTO results (compound, quantity_name, endpoint_value) VALUES
  ('C=C/C=C/C(=O)C1=CN(CC(C)C)CCC1(C)C [drawing 117]', 'ε', 18000),
  ('CC(C)CN1C=C(C(=O)/C=C/c2ccccc2)C(C)(C)CC1 [drawing 111]', 'ε', 16000),
  ('C=CCC(=O)C1=CN(CC(C)C)CCC1(C)C [drawing 110]', 'ε', 27000);

For each of the items listed, what is its ε?
1. COc1ccc(/C=C/C(=O)C2=CN(CC(C)C)CCC2(C)C)cc1 [drawing 114]
2. CC(C)CN1C=C(C(=O)/C=C/c2ccc(C(F)(F)F)cc2)C(C)(C)CC1 [drawing 113]

### Response
16150
17000

---

- Test Name: UV absorption properties (λmax, molar extinction coefficient ε, efficiency E 1%, 1 cm)
- Type: physicochemical
- Condition Summary: Table 13B, miscellaneous compounds
Quantity Name: λmax (nm)
Give bare numbers, in nm.

INSERT INTO assay_data (smiles_entry, quantity_name, endpoint_value) VALUES
  ('CC1(C)CCN(C(C)(C)C)C=C1C(=O)c1c(F)c(F)c(F)c(F)c1F', 'λmax', 314),
  ('CC1(C)CCN(C(C)(C)C)C=C1C(=O)c1ccccn1', 'λmax', 317),
  ('CC1(C)CCN(C(C)(C)C)C=C1C(=O)/C=C/c1ccc(/C=C/C(=O)C2=CN(C(C)(C)C)CCC2(C)C)cc1', 'λmax', 386),
  ('CCOC(=O)c1cc(/C=C/C(=O)C2=CN(C(C)(C)C)CCC2(C)C)c(C(=O)OCC)cc1/C=C/C(=O)C1=CN(C(C)(C)C)CCC1(C)C', 'λmax', 383),
  ('CCCCCCC(=O)C1=CN(c2ccc(N3C=C(C(=O)CCCCCC)C(C)(C)CC3)cc2)CCC1(C)C', 'λmax', 359),
  ('COC(=O)c1cc(/C=C/C(=O)C2=CN(C(C)(C)C)CCC2(C)C)ccc1/C=C/C(=O)C1=CN(C(C)(C)C)CCC1(C)C', 'λmax', 383),
  ('Cc1cc(/C=C/C(=O)C2=CN(C(C)(C)C)CCC2(C)C)c(C)cc1Br', 'λmax', 360);

Now turn to the next compound.
### Prompt Please report the recorded λmax for `COC(=O)c1cc(Br)ccc1/C=C/C(=O)C1=CN(C(C)(C)C)CCC1(C)C` .
### Response 362

---

- Test Name: UV absorption properties (λmax, molar extinction coefficient ε, efficiency E 1%, 1 cm)
- Type: physicochemical
Quantity Name: UV λmax (nm)
Answers are plain numbers, in nm.

Examples with their reported UV λmax follow.
INSERT INTO results (smiles_entry, quantity_name, unit_name, endpoint_value) VALUES
  ('CC1(C)CCN(C(C)(C)C)C=C1C(=O)c1ccc(C(=O)O)cc1', 'UV λmax', 'nm', 317),
  ('CC1(C)CCN(C(C)(C)C)C=C1C(=O)c1ccncc1', 'UV λmax', 'nm', 316),
  ('C=C(C)CC(=O)C1=CN(CC(C)C)CCC1(C)C', 'UV λmax', 'nm', 306),
  ('CCC(=O)C1=C(c2ccccc2)N(CC(C)C)CCC1(C)C', 'UV λmax', 'nm', 338),
  ('C=CC(=O)C1=CN(c2ccccc2)CCC1(C)C', 'UV λmax', 'nm', 346),
  ('CC(C)(C)c1ccc(C(=O)CC(=O)c2ccc(OCc3ccc(Br)cc3)cc2)cc1', 'UV λmax', 'nm', 357);

For each of the items listed, what is its UV λmax?
1. Cc1ccc(N2C=C(C(=O)C(F)(F)F)C(C)(C)CC2)cc1
2. CC1(C)CCN(c2ccc(C(C)(C)C)cc2)C=C1C(=O)C(c1ccccc1)c1ccccc1

### Response
1. 337
2. 337

### Prompt Please report the recorded UV λmax for `CC(C)CN1C=C(C(=O)c2ccc3c(c2)CCO3)C(C)(C)CC1` .
### Response 320
